- measured target: human orexin receptor 1 (Homo sapiens (Human))
- Sequence (O43613 whole entry): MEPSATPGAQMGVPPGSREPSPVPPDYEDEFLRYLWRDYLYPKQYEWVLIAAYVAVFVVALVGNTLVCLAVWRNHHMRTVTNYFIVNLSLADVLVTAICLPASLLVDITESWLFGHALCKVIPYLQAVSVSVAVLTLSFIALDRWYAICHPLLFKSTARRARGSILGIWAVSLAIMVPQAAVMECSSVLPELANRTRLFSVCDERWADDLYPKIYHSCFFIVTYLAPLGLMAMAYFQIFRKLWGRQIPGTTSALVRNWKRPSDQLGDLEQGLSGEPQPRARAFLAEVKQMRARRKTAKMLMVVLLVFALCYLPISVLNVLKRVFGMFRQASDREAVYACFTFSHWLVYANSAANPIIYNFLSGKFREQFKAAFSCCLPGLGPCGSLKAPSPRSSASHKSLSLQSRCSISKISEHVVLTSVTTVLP
- assay info: Orexin antagonist activity, intracellular calcium FLIPR assay (orexin receptor 1)
- experimental context: RBL-2H3 cells stably expressing human orexin receptor 1; Ca2+ dye FLIPR; compound 15 minutes before orexin-A at approximately 80% maximal response; read-out: Human Orexin1R IC50
pIC50: −log10 of the molar value.
Classification field: 1.0 = pIC50 at or over 7; 0.0 = pIC50 under 7.

[[record]]
compound = "Cc1ccc(-n2ccnn2)c(C(=O)N[C@H]2CCC[C@@H]2Nc2nc3ccc(F)cc3s2)c1"
class_assignment = 1.0

[[record]]
compound = "O=C(N[C@H]1CCC[C@@H]1Nc1nc2ccc(F)cc2s1)c1cc(F)ccc1-c1ncccn1"
class_assignment = 1.0

[[record]]
compound = "Cc1ccc(-n2nccn2)c(C(=O)NC2CCCC2Cc2cnc3ccccc3n2)c1 (centres unmarked)"
class_assignment = 1.0

[[record]]
compound = "O=C(N[C@H]1CCC[C@@H]1Nc1nc2cccnc2s1)c1ccccc1-n1nccn1"
class_assignment = 1.0

[[record]]
compound = "O=C(N[C@H]1CCC[C@@H]1Nc1nc2ccc(F)cc2s1)c1c(F)cccc1-n1nccn1"
class_assignment = 1.0

[[record]]
compound = "COc1cccc(OC)c1C(=O)NC1CCCC1Cc1nc2ccc(Cl)cc2s1 (centres unmarked)"
class_assignment = 0.0

[[record]]
compound = "COc1c(F)cccc1C(=O)N[C@H]1CCC[C@@H]1Nc1nc2ccc(F)cc2s1"
class_assignment = 0.0

[[record]]
compound = "COc1cccc(OC)c1C(=O)N[C@H]1CCC[C@@H]1Nc1nc2ccccc2s1"
class_assignment = 1.0

